# Read-out: flavin-containing dimethylaniline monooxygenases 3 (FMO3), FMO3 (gene 2328)
# protocol-text: LTEA_HepaRG_FMO3: Life Technologies and Expression Analysis (LTEA) Assay for flavin-containing dimethylaniline monooxygenases 3 (FMO3) using HepaRG (AID 2283453)
# condition-notes: mRNA level, 48 h; actives raise or lower the signal
Calls of active or inactive are those of the source. Rule for the calls: active = hit-call score of the fitted dose curve at least 0.9, where 1 is the maximum; inactive = score below 0.9.
Select the matching outcome among class 1 = active, class 0 = inactive

O=C(c1ccccc1)C1CCCCC1    class 0
CN(C)C(=O)Nc1ccc(Cl)c(Cl)c1    class 1
c1ccc2[nH]c(-c3cscn3)nc2c1    class 0

Recorded test outcome, item OB(O)O
class 0

Then what about the compound CC(=O)S[C@@H]1CC2=CC(=O)CC[C@]2(C)[C@H]2CC[C@@]3(C)[C@@H](CC[C@@]34CCC(=O)O4)[C@H]12 ?
class 1

----------
# protocol-text: APR_HepG2_MitoMass_72hr: Apredica 72-hour HepG2 Assay for Mitochondrial Mass (AID 2282924);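 note: MitoTracker Red CMXRos stain intensity per cell imaged as mitochondrial mass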
# condition-notes: high-content imaging, actives raise or lower the signal
The source made the active and inactive calls. The calls were made as follows: active = hit-call score of the fitted dose curve at least 0.9, where 1 is the maximum; inactive = score below 0.9.
Select the matching outcome among active, inactive

CCOC(=O)C(C)Oc1ccc(Oc2nc3ccc(Cl)cc3o2)cc1 (configuration not stated)    inactive
COC(=O)c1ccccc1S(=O)(=O)NC(=O)Nc1nc(OC(F)F)cc(OC(F)F)n1    inactive
N[C@@H](Cc1cc(I)c(Oc2ccc(O)c(I)c2)c(I)c1)C(=O)O    inactive
C#C[C@]1(O)CC[C@H]2[C@@H]3CCC4=CC(=O)CC[C@@H]4[C@H]3CC[C@@]21CC    inactive
COC(=O)c1c(Cl)nn(C)c1S(=O)(=O)NC(=O)Nc1nc(OC)cc(OC)n1    inactive
COCCO    inactive
O=C(O)c1ccccc1    inactive
CC1(C)C(C=C(Cl)Cl)C1C(=O)OCc1cccc(Oc2ccccc2)c1 (configuration not stated)    inactive

Recorded test outcome, item c1ccc2[nH]c(-c3cscn3)nc2c1
inactive

Then what about the compound COC(=O)c1ccc(CNS(C)(=O)=O)cc1S(=O)(=O)NC(=O)Nc1nc(OC)cc(OC)n1 ?
inactive

----------
# protocol-text: CCTE_Mundy_HCI_Cortical_Synap_Neur_Matur_BPCount: CCTE's Synaptogenesis and Neurite Maturation Assay in rat cortical cells for Branch Point Count, Mundy Lab (AID 2284211)
Active and inactive are the calls of the source. Rule for the calls: active = hit-call score of the fitted dose curve at least 0.9, where 1 is the maximum; inactive = score below 0.9.
Select the matching outcome among yes (1) for active, no (0) for inactive

See these solved cases before continuing.
O=C(O)c1ccccc1    no (0)
CC1(C)C(C=C(Cl)Cl)C1C(=O)OCc1cccc(Oc2ccccc2)c1 (stereo not given)    yes (1)
CCN(CC)C(=O)c1cccc(C)c1    no (0)
S=C(S)NCCNC(=S)S.[Mn+2].[S-]C([S-])=NCCN=C([S-])[S-].[Zn+2]    no (0)

Turning now to a further record.
Recorded test outcome, item CSC(=O)c1cccc2nnsc12
no (0)

----------
# protocol-text: CEETOX_H295R_CORTISOL: CeeTox H295R High-throughput Steroidogenesis Assay for Cortisol (AID 2283438);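 note: cortisol secreted into medium quantified by LC-MS/MS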
# condition-notes: actives raise or lower the signal
Active and inactive are the calls of the source. The calls were made as follows: active = hit-call score of the fitted dose curve at least 0.9, where 1 is the maximum; inactive = score below 0.9.
Select the matching outcome among active, inactive

See these solved cases before continuing.
CCCCCOC(=O)COc1cc(N2C(=O)C3=C(CCCC3)C2=O)c(F)cc1Cl    inactive
C#C[C@]1(O)CC[C@H]2[C@@H]3CCC4=CC(=O)CC[C@@H]4[C@H]3CC[C@@]21CC    active
C[C@]12C[C@H](O)[C@H]3[C@@H](CCC4=CC(=O)CC[C@@]43C)[C@@H]1CC[C@@H]2C(=O)CO    inactive

Recorded test outcome, item CC(=O)S[C@@H]1CC2=CC(=O)CC[C@]2(C)[C@H]2CC[C@@]3(C)[C@@H](CC[C@@]34CCC(=O)O4)[C@H]12
active
